Tested on: Rh41
Assay: MTT cell proliferation assay, Rh41
Format: cell-based
Conditions: Homo sapiens, Rh41, Rhabdomyosarcoma, 48 h, read-out: Cell killing activity IC50
ENDPOINT_NAME: IC50 (nM)
Return type: number; implicit unit nM.

Fill in the blank: the reported IC50 of CCCCCCCCCCCCC1CN2CCCN3CCCCCC132 (stereo not shown) is ____.
970

Fill in the blank: the reported IC50 of CCCCCCCCCCC1CN2CCCN3CCCCCC132 (stereo not shown) is ____.
1160

Fill in the blank: the reported IC50 of CCCCCCCCCCCCCCCCC1CN2CCCN3CCCCCC132 (stereo not shown) is ____.
820

Fill in the blank: the reported IC50 of CCCCCC1CN2CCCN3CCCCCC132 (stereo not shown) is ____.
4010

Fill in the blank: the reported IC50 of CCCCCCCCCCCCCCC1CN2CCCN3CCCCCC132 (stereo not shown) is ____.
150

Fill in the blank: the reported IC50 of CCCCCCCCCCCCCCCCCCC1CN2CCCN3CCCCCC132 (stereo not shown) is ____.
1120

Fill in the blank: the reported IC50 of CCCCCCCCC1CN2CCCN3CCCCCC132 (stereo not shown) is ____.
2030

---

Experiment: Pilot pharmacokinetic study in mice
Format: in vivo, mouse
Settings: female, athymic nude, plasma, intravenous; 1 mg/kg i.v., 2 h, nude mice, 1 mouse per time point
Description: To establish a standard assay for RC16 detection and the half-life of RC16 in murine blood, a basic pilot pharmacokinetic study was performed using 1 animal per timepoint. Non-tumor bearing, female, athymic nude mice were treated with RC16 by i.v. or p.o.at doses of 1 mg/kg and 2 mg/kg, respectively. […] The RC16 concentration in plasma was determined by liquid LC-MS/MS. […]
ENDPOINT_NAME: concentration at 2 h (ng/mL)
Return type: number; implicit unit ng/mL.

Fill in the blank: the reported concentration at 2 h of CCCCCCCCCCCCCCC1CN2CCCN3CCCCCC132 (stereo not shown) is ____.
153

---

System: Ramos
Experiment: MTT cell proliferation assay, Ramos
Type: cell-based
Conditions: Homo sapiens, Lymphoma, 24 h, read-out: Cell killing activity IC50
pIC50: −log10 of the molar value.
Use 6 as the dividing line for pIC50, with the line itself on the yes side and lower values as no.

Check this compound for pIC50 at or above 6: CCCCCC1CN2CCCN3CCCCCC132 (stereo not shown) [RC7]
no

Check this compound for pIC50 at or above 6: CCCCCCCCC1CN2CCCN3CCCCCC132 (stereo not shown) [RC10]
no

Check this compound for pIC50 at or above 6: CCCCCCCCCCCCCCC1CN2CCCN3CCCCCC132 (stereo not shown) [RC16]
yes

---

Test system: SK-N-AS
Assay: MTT cell proliferation assay, SK-N-AS
Assay type: cell-based
Settings: Homo sapiens, Neuroblastoma, 24 h, read-out: Cell killing activity IC50
The label fulfilled is reserved for IC50 strictly under 2000 nM; not fulfilled covers values equal to or above it.

For this molecule, is IC50 lower than 2000 nM? CCCCCCCCC1CN2CCCN3CCCCCC132 (stereo not shown) [RC10]
not fulfilled

For this molecule, is IC50 lower than 2000 nM? CCCCCCCCCCCCCCC1CN2CCCN3CCCCCC132 (stereo not shown) [RC16]
fulfilled

For this molecule, is IC50 lower than 2000 nM? CCCCCCCCCCCCCCCCCCC1CN2CCCN3CCCCCC132 (stereo not shown) [RC20]
fulfilled

For this molecule, is IC50 lower than 2000 nM? CCCCCCCCCCC1CN2CCCN3CCCCCC132 (stereo not shown) [RC12]
fulfilled

For this molecule, is IC50 lower than 2000 nM? CCCCCC1CN2CCCN3CCCCCC132 (stereo not shown) [RC7]
not fulfilled

For this molecule, is IC50 lower than 2000 nM? CCCCCCCCCCCCC1CN2CCCN3CCCCCC132 (stereo not shown) [RC14]
fulfilled

For this molecule, is IC50 lower than 2000 nM? CCCCCCCCCCCCCCCCC1CN2CCCN3CCCCCC132 (stereo not shown) [RC18]
fulfilled

---

Test system: adult tumor cell lines (A549, MDA-MB-231, WiDr)
Assay: MTT cell killing, adult tumor cell lines (summary)
Assay type: cell-based
Details: Homo sapiens, summary of Table II
pIC50: −log10 of the molar value.
ENDPOINT_NAME: pIC50

Fill in the blank: the reported pIC50 of CCCCCCCCCCCCCCC1CN2CCCN3CCCCCC132 (stereo not shown) is ____.
5.00 to 6.00

---

Assay: Pilot pharmacokinetic study in mice
Format: in vivo, mouse
Settings: female, athymic nude, plasma, intravenous; 1 mg/kg i.v., 24 h, nude mice, 1 mouse per time point
ENDPOINT_NAME: concentration at 24 h (ng/mL)
Return type: number; implicit unit ng/mL.

Fill in the blank: the reported concentration at 24 h of CCCCCCCCCCCCCCC1CN2CCCN3CCCCCC132 (stereo not shown) [RC16] is ____.
11.4

---

Test system: SK-N-AS
Assay: MTT cell proliferation assay, SK-N-AS
Format: cell-based
Conditions: Homo sapiens, Neuroblastoma, 48 h, read-out: Cell killing activity IC50
For each entry below, report its pIC50 value.
Please report pIC50 as the negative decimal logarithm of the molar concentration, giving only the number.

Record lookup: for SK-N-AS, what pIC50 belongs to CCCCCCCCCCCCCCCCC1CN2CCCN3CCCCCC132 (stereo not shown) [RC18] ?
6.12

Record lookup: for SK-N-AS, what pIC50 belongs to CCCCCCCCCCCCCCCCCCC1CN2CCCN3CCCCCC132 (stereo not shown) [RC20] ?
6.05

Record lookup: for SK-N-AS, what pIC50 belongs to CCCCCC1CN2CCCN3CCCCCC132 (stereo not shown) [RC7] ?
5.46

Record lookup: for SK-N-AS, what pIC50 belongs to CCCCCCCCCCC1CN2CCCN3CCCCCC132 (stereo not shown) [RC12] ?
6.15

Record lookup: for SK-N-AS, what pIC50 belongs to CCCCCCCCCCCCCCC1CN2CCCN3CCCCCC132 (stereo not shown) [RC16] ?
6.17

Record lookup: for SK-N-AS, what pIC50 belongs to CCCCCCCCC1CN2CCCN3CCCCCC132 (stereo not shown) [RC10] ?
5.81

Record lookup: for SK-N-AS, what pIC50 belongs to CCCCCCCCCCCCC1CN2CCCN3CCCCCC132 (stereo not shown) [RC14] ?
6.20

---

Test: Pilot pharmacokinetic study in mice
Assay type: in vivo, mouse
Conditions: female, athymic nude, mouse, plasma; IV, 1 mg/kg, nude mice; read-out: Cmax
ENDPOINT_NAME: Cmax (ng/mL)
Return type: number; implicit unit ng/mL.

Fill in the blank: the reported Cmax of CCCCCCCCCCCCCCC1CN2CCCN3CCCCCC132 (stereo not shown) is ____.
153

---

System: MDA-MB-231
Experiment: MTT cell proliferation assay, MDA-MB-231
Assay type: cell-based
Settings: Homo sapiens; MDA-MB-231, adult tumor cell line, 48 h; read-out: Cell killing activity IC50
ENDPOINT_NAME: pIC50
Please report pIC50 as the negative decimal logarithm of the molar concentration, giving only the number.

Fill in the blank: the reported pIC50 of CCCCCCCCCCCCCCC1CN2CCCN3CCCCCC132 (stereo not shown) is ____.
5.78

---

Test: Pilot pharmacokinetic study in mice
Format: in vivo, mouse
Details: female, athymic nude, mouse, plasma; 2 mg/kg oral, non-compartmental analysis, nude mice; read-out: Apparent half-life (converted)
ENDPOINT_NAME: half-life

Fill in the blank: the reported half-life of CCCCCCCCCCCCCCC1CN2CCCN3CCCCCC132 (stereo not shown) is ____.
5.2 h

---

Test: Pilot pharmacokinetic study in mice
Assay type: in vivo, mouse
Conditions: female, athymic nude, mouse, plasma; IV, 1 mg/kg, nude mice; read-out: AUC0-24
ENDPOINT_NAME: AUC(0-t)
Write the numeric value and append its unit.

Fill in the blank: the reported AUC(0-t) of CCCCCCCCCCCCCCC1CN2CCCN3CCCCCC132 (stereo not shown) [RC16] is ____.
1390 ng·h/mL

---

Test system: S462TY
Assay: MTT cell proliferation assay, S462TY
Type: cell-based
Details: Homo sapiens, Malignant Peripheral Nerve Sheath Tumor, 24 h, read-out: Cell killing activity IC50
For each entry below, report its IC50 value.
Return type: number; implicit unit nM.

Fill in the blank: the reported IC50 of CCCCCCCCC1CN2CCCN3CCCCCC132 (stereo not shown) [RC10] is ____.
2390

Fill in the blank: the reported IC50 of CCCCCCCCCCCCCCCCCCC1CN2CCCN3CCCCCC132 (stereo not shown) [RC20] is ____.
1830

Fill in the blank: the reported IC50 of CCCCCCCCCCCCCCC1CN2CCCN3CCCCCC132 (stereo not shown) [RC16] is ____.
1110

Fill in the blank: the reported IC50 of CCCCCCCCCCCCC1CN2CCCN3CCCCCC132 (stereo not shown) [RC14] is ____.
1810

Fill in the blank: the reported IC50 of CCCCCC1CN2CCCN3CCCCCC132 (stereo not shown) [RC7] is ____.
5620

Fill in the blank: the reported IC50 of CCCCCCCCCCC1CN2CCCN3CCCCCC132 (stereo not shown) [RC12] is ____.
2000

Fill in the blank: the reported IC50 of CCCCCCCCCCCCCCCCC1CN2CCCN3CCCCCC132 (stereo not shown) [RC18] is ____.
1670

Where do these numbers come from? They come from paper PMC5040747.
